# System: GST-Bcl-2
# ASSAY REMARKS: TR-FRET binding assay, Bcl-2
# EXPERIMENTAL PARAMETERS: TR-FRET Ki values
Lab note: compare Binding selectivity ratio (Bcl-XL Ki/Bcl-2 Ki) with 50, writing YES if less and NO if equal or more.

# COMPOUND, TARGET OF ASSAY, CLASS LABEL
rows = [
    ("CC1(C)CCC(CN2CCN(c3ccc(C(=O)NS(=O)(=O)c4ccc(OC[C@H]5COCCO5)c([N+](=O)[O-])c4)c(Oc4ccc5[nH]ccc5c4)c3)CC2)=C(c2ccc(Cl)cc2)C1 [EXAMPLE 346]", "GST-Bcl-2", "NO"),
    ("CC1(C)CCC(CN2CCN(c3ccc(C(=O)NS(=O)(=O)c4ccc(NCC5CN(C6CC6)CCO5)c([N+](=O)[O-])c4)c(Oc4cccc5[nH]ncc45)c3)CC2)=C(c2ccc(Cl)cc2)C1 (stereo not shown) [EXAMPLE 411]", "GST-Bcl-2", "NO"),
    ("CC1(C)CCC(CN2CCN(c3ccc(C(=O)NS(=O)(=O)c4ccc(OCC5CCOC(C)(C)C5)c([N+](=O)[O-])c4)c(Oc4ccc5[nH]ccc5c4)c3)CC2)=C(c2ccc(Cl)cc2)C1 (stereo not shown) [EXAMPLE 384]", "GST-Bcl-2", "NO"),
    ("CN1CC(Nc2ccc(S(=O)(=O)NC(=O)c3ccc(N4CCN(CC5=C(c6ccc(Cl)cc6)CC(C)(C)CC5)CC4)cc3Oc3ccc4[nH]ccc4c3)cc2[N+](=O)[O-])CCC1=O (stereo not shown) [EXAMPLE 282]", "GST-Bcl-2", "NO"),
    ("CN(C)CCOc1ccc(-c2ccc(Cl)cc2)c(CN2CCN(c3ccc(C(=O)NS(=O)(=O)c4ccc(NC5CCN(CC(F)(F)F)CC5)c([N+](=O)[O-])c4)c(Oc4ccccc4)c3)CC2)c1 [Example 137]", "GST-Bcl-2", "NO"),
    ("O=C(NS(=O)(=O)c1ccc(NCCCN2CCOCC2)c([N+](=O)[O-])c1)c1ccc(N2CCN(Cc3ccccc3-c3ccc(Cl)cc3)CC2)cc1Oc1ccc2[nH]ccc2c1 [Example 59]", "GST-Bcl-2", "NO"),
    ("O=C(NS(=O)(=O)c1ccc(NCCCN2CCOCC2)c([N+](=O)[O-])c1)c1ccc(N2CCN(Cc3ccccc3-c3ccc(Cl)cc3)CC2)cc1Oc1ccc2ccccc2c1 [Example 36]", "GST-Bcl-2", "YES"),
    ("CC1(C)CCC(c2ccc(Cl)cc2)=C(CN2CCN(c3ccc(C(=O)NS(=O)(=O)c4ccc(NCCCN5CCOCC5)c([N+](=O)[O-])c4)c(Oc4ccccc4)c3)CC2)C1 [Example 19]", "GST-Bcl-2", "YES"),
    ("CN1CCC(Nc2ccc(S(=O)(=O)NC(=O)c3ccc(N4CCN(CC5=C(c6ccc(Cl)cc6)CC(C)(C)CC5)CC4)cc3Oc3ccc4[nH]ncc4c3)cc2[N+](=O)[O-])CC1 [Example 21]", "GST-Bcl-2", "YES"),
    ("O=C(NS(=O)(=O)c1ccc(NCCCN2CCCC2)c([N+](=O)[O-])c1)c1ccc(N2CCN(Cc3ccccc3-c3ccc(Cl)cc3)CC2)cc1Oc1ccccc1 [Example 91]", "GST-Bcl-2", "NO"),
]
